We begin with a simple list: items and their reported Z-score.
assayed_target: Human IP6K1 (Homo sapiens, UniProt Q92551)
Construct: GST (N, cleaved yes); made in house; host or cells: C43 E. coli, pGEX-6P-2
Sequence (Q92551 whole entry): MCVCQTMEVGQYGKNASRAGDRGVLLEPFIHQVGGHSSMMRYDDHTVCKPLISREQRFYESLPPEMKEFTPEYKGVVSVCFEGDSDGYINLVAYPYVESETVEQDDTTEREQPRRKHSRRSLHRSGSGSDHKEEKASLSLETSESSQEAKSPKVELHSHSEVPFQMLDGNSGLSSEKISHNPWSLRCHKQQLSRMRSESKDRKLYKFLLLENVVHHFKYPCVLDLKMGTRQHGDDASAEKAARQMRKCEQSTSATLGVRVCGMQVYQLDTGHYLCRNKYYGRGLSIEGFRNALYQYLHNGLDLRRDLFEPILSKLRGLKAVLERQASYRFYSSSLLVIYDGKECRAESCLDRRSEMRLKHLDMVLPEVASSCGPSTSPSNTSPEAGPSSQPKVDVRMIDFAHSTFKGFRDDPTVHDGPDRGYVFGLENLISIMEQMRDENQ
test_protocol: IP6K1 high-throughput screen of the Sigma LOPAC (ADP-Glo Max, single point);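 further: final compound concentration 10µM in 5% DMSO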
Type: biochemical
assay_conditions: Sigma LOPAC single-point screen; Z-score from plate average and StDev

// below: answered compounds
compound | Z-score
COc1ccc(CCNC[C@H](O)c2ccc(O)cc2)cc1OC [R(-)-Denopamine] | 0.4267
O=C(O)[C@H]1CCCN[C@H]1C(=O)O (racemic) | 0.9161
NC(N)=NOCC[C@H](N)C(=O)O.O=S(=O)(O)O [L-Canavanine sulfate] | 0.665

Could you share which Z-score value was measured for Cl.c1ccc(CN2CCC3(CCCc4ccccc43)CC2)cc1 [L-687,384 hydrochloride] ? 0.6955

Could you share which Z-score value was measured for CCC1(C)CC(=O)NC1=O (centres unmarked) [Ethosuximide] ? 0.3905
